system: Klebsiella pneumoniae; conditions: Concentration 20 uM; ASSAY_TEST Inhibition of Bacterial Growth; detection method Absorption (OD600); MEDIA CAMHB; plate type 384well; NBS; CORNING #3640; time 18 hr
Description: Antibacterial activity against Klebsiella pneumoniae MDR ATCC 70063 (CO-ADD:GN_003); MIC in CAMBH media using NBS plates, by OD(600)
Results with a measured potency or affinity are listed apart.
Reported property: Inhibition (%)
Numbers only here, please. The scale is %.

CCN(CC)c1ccc(C=C2C(=O)NC(=S)NC2=O)cc1; 3.93
C=CCCC1(C2=CCCCC2)C(=O)NC(=O)NC1=O; 12.33
O=[N+]([O-])c1cc([As](=O)(O)c2ccc(O)c([N+](=O)[O-])c2)ccc1O; 5.87
N=C(N)N/N=C/c1c(Cl)cccc1Cl; 13.62

QUERY: Give its Inhibition value. Item: OCC1CN1C1CCCCC1 (stereo unspecified)
RESULT: 26.1

QUERY: Proceed to CN1CCC(c2c[nH]c3ccccc23)C1 (stereo unspecified)
RESULT: 8.23

====

tested on: Klebsiella pneumoniae; conditions: Concentration 20 uM; ASSAY_TEST Inhibition of Bacterial Growth; detection method Absorption (OD600); MEDIA CAMHB; plate type 384well; NBS; CORNING #3640; time 18 hr
Potency and affinity values are given separately.
Reported property: Inhibition (%)
Numbers only here, please. The scale is %.

Please review the entries below; each comes with its answer.
O=[As](O)(O)c1ccc(/N=N/c2ccc(O)cc2)cc1; 15.09
Cc1ccccc1-n1c(/C=C\c2ccccn2)nc2ccccc2c1=O; 14.95
CC(=O)Nc1ccc([As](=O)(O)c2ccc([N+](=O)[O-])cc2)cc1; 10.87
CCOC(=O)c1ccc2nc(-c3ccc(S(=O)(=O)F)cc3)cc(O)c2c1; 7.81
Cc1c(C(=O)c2ccccc2)c2ccccc2n1C; 4.42

QUERY: Give its Inhibition value. Item: `CC(=O)Nc1cc([As](=O)(O)O)ccc1O`
RESULT: 16.86

QUERY: Proceed to `CCN1CCc2ccccc2C1`
RESULT: 8.74

QUERY: Proceed to `C[C@H]1CC[C@@]2(C)[C@@H](CC[C@@H]3[C@@H]2CC[C@]2(C)[C@@H](O)CC[C@@H]32)C1`
RESULT: 23.84

QUERY: Proceed to `CNC(=O)Oc1c(O)ccnc1C`
RESULT: 2.24

QUERY: Proceed to `Cc1ncc([N+](=O)[O-])n1CCOC(N)=O`
RESULT: 2.21

QUERY: Proceed to CN1C(=O)NC(=O)C(/N=N/c2ccc(Cl)cc2)C1=O (configuration not stated)
RESULT: 13.9

====

Overview of reported Inhibition across a group of compounds:
test system: Acinetobacter baumannii; assay: Antibacterial activity against Acinetobacter baumannii ATCC 19606 (CO-ADD:GN_034); MIC in CAMBH media using NBS plates, by Resazurin F(560/590); format: functional; details: Concentration 20 uM, ASSAY_TEST Inhibition of Bacterial Growth, detection method Resazurin, Fluorescence (ex560/em590), MEDIA CAMHB, plate type 384well, CORNING #3640, time 18 hr
Numbers only here, please. The scale is %.

Please review the entries below; each comes with its answer.
CCc1cc2c(cc1-c1csc(CC(=N)NO)n1)C(C)(C)CCC2(C)C; 7.35
C=CCCC1(C2=CCCCC2)C(=O)NC(=O)NC1=O; -12.21
CN(C)P(=O)(N(C)C)N1CC1; -2.37
Cc1cc(OCCN2CC2)c2ccccc2n1; -8.46

QUERY: Inhibition of `CN1CCc2cc3c(cc2C1)OCO3` on Acinetobacter baumannii?
RESULT: -14.77

====

tested on: Cryptococcus neoformans; details: Concentration 20 uM; ASSAY_TEST Inhibition of Fungal Growth; detection method Resazurin; Absorption (OD600-OD570); plate type 384well; NBS; CORNING #3640
Description: Antifungal activity against Cryptococcus neoformans H99 ATCC 208821 (CO-ADD:FG_002); MIC in YNB media using NBS plates, by Resazurin OD(600-570)
Results with a measured potency or affinity are listed apart.
Reported property: Inhibition (%)
Numbers only here, please. The scale is %.

Please review the entries below; each comes with its answer.
CN1CCN(c2nc(N)c(Br)c(Cl)n2)CC1; -7.43
O=C(O)CCCC[C@@H]1SC[C@@H]2NC(=O)N[C@@H]21; -9.23
Cc1ccccc1-n1c(/C=C\c2ccccn2)nc2ccccc2c1=O; -6.01
COc1cccc2c1C(=O)c1c(O)c3c(c(O)c1C2=O)C[C@@](O)(/C(C)=N\O)C[C@@H]3OC1CC(N)C(O)C(C)O1.Cl (stereo not given in full); -5.57
CCOP(=O)(OCC)/C(C#N)=C/c1ccc(-c2ccc(F)cc2F)o1; -6.44
CCCCOP(=O)(OCCCC)C1(C)CC(=O)CC(C)(C)C1 (stereo not given); -15.51
OCC1CN1C1CCCCC1 (stereo not given); -2.3
COc1cc(C=C2C(=O)NC(=O)NC2=O)ccc1O; -7.52
O=C(Nc1ccc(F)cc1)Oc1cccnc1O; -4.36
O=C1CN=C(c2ccc[nH]2)c2cc(Cl)ccc2N1; -5.64

QUERY: Give its Inhibition value. Item: CCC(CO)NC(=O)C1C=C2c3cccc4[nH]cc(c34)CC2N(C)C1 (stereo not given)
RESULT: 5.57

QUERY: Proceed to `N=C(N)N/N=C/c1c(Cl)cccc1Cl`
RESULT: -12.66

QUERY: Proceed to c1ccc2c(c1)Sc1ccccc1N2CC1CN2CCC1CC2 (stereo not given)
RESULT: -3.37

QUERY: Proceed to CC1CC(C)OP(=O)(OCCC#N)O1 (stereo not given)
RESULT: -8.12

QUERY: Proceed to `c1cnc2c(c1)ccc1ncccc12`
RESULT: -4.19

====

tested on: Acinetobacter baumannii; experiment: Antibacterial activity against Acinetobacter baumannii ATCC 19606 (CO-ADD:GN_034); MIC in CAMBH media using NBS plates, by Resazurin F(560/590); assay type: functional; conditions: Concentration 20 uM, ASSAY_TEST Inhibition of Bacterial Growth, detection method Resazurin, Fluorescence (ex560/em590), MEDIA CAMHB, plate type 384well, CORNING #3640, time 18 hr
Reported property: Inhibition (%)
Numbers only here, please. The scale is %.

QUERY: Give its Inhibition value. Item: `CCOP(=O)(OCC)/C(C#N)=C/c1ccc(-c2ccc(F)cc2F)o1`
RESULT: -5.44

QUERY: Proceed to `CN1C(=O)CC[C@@]2(C)C1=CC[C@@H]1[C@@H]2CC[C@@]2(C)[C@H]1CC[C@]2(C)O`
RESULT: -5.24

QUERY: Proceed to CCN1CC2C3CCC(C)(O3)C2C1 (configuration not stated)
RESULT: -6.99

QUERY: Proceed to `O=C(NCCCN1CC1)Nc1cccc2ccccc12`
RESULT: 12.11

QUERY: Proceed to CC1CC(C)OP(=O)(OCCC#N)O1 (configuration not stated)
RESULT: -12.84

====

system: Cryptococcus neoformans; details: Concentration 20 uM; ASSAY_TEST Inhibition of Fungal Growth; detection method Resazurin; Absorption (OD600-OD570); plate type 384well; NBS; CORNING #3640
Entries with a potency or affinity are not part of this list.
Overview of reported Inhibition across a group of compounds:
Numbers only here, please. The scale is %.

Please review the entries below; each comes with its answer.
CCOC(=O)c1ccc2nc(-c3ccc(S(=O)(=O)F)cc3)cc(O)c2c1; -10.46
CN1C(=O)NC(=O)C(/N=N/c2ccc(Cl)cc2)C1=O (stereo not drawn); -3.1
c1cncc(C2Nc3cccc4cccc(c34)N2)c1; 30.98

Now look at this one.
QUERY: Give its Inhibition value. Item: `Cc1ncc([N+](=O)[O-])n1CCOC(N)=O`
RESULT: 7.78

====

test system: Escherichia coli; test: Antibacterial activity against Escherichia coli ATCC 25922 (CO-ADD:GN_001); MIC in CAMBH media using NBS plates, by Resazurin F(560/590); assay type: functional; details: Concentration 20 uM, ASSAY_TEST Inhibition of Bacterial Growth, detection method Resazurin, Fluorescence (ex560/em590), MEDIA CAMHB, plate type 384well, CORNING #3640, time 18 hr
Overview of reported Inhibition across a group of compounds:
Numbers only here, please. The scale is %.

Please review the entries below; each comes with its answer.
CCc1cc2c(cc1-c1csc(CC(=N)NO)n1)C(C)(C)CCC2(C)C; -22.59
c1ccc2c(c1)Sc1ccccc1N2CC1CN2CCC1CC2 (stereo not drawn); 10.66

QUERY: Give its Inhibition value. Item: `Cc1ccccc1-n1c(/C=C\c2ccccn2)nc2ccccc2c1=O`
RESULT: 7.76

====

tested on: Escherichia coli; experiment: Antibacterial activity against Escherichia coli ATCC 25922 (CO-ADD:GN_001); MIC in CAMBH media using NBS plates, by Resazurin F(560/590); type: functional; settings: Concentration 20 uM, ASSAY_TEST Inhibition of Bacterial Growth, detection method Resazurin, Fluorescence (ex560/em590), MEDIA CAMHB, plate type 384well, CORNING #3640, time 18 hr
Overview of reported Inhibition across a group of molecules:
Numbers only here, please. The scale is %.

C/C=C(/C)C(=O)O[C@H]1CCN2CC=C(COC(=O)[C@@](O)([C@H](C)OC)C(C)(C)O)[C@H]12; 10.49
C[C@H]1CC[C@@]2(C)[C@@H](CC[C@@H]3[C@@H]2CC[C@]2(C)[C@@H](O)CC[C@@H]32)C1; 2.81
OCC1CN1C1CCCCC1 (centres undefined); 0.67

Now look at this one.
QUERY: Give its Inhibition value. Item: CN1CCCC1c1ccc(O)nc1 (centres undefined)
RESULT: 16.87
